Target: human Kv1.3 ion channel (Homo sapiens)
Construct: Human Jurkat cells (which endogenously express hKv1.3) were used in place of rat L929 cells; endogenous in cells
Assay: Inhibition of Kv1.3 currents, planar patch clamp in Jurkat cells
Settings: Human Jurkat cells (endogenous hKv1.3), averaged dose response data from 3 or more cells
test-readout: pEC50
Note on pEC50: it is the negative log10 of concentration, concentration in mol/L.

For orientation, consider the following solved cases.
# smiles-text, pEC50
measured = [
    ("CC(=O)c1c(OCCN2CCCCC2)c(OCCCc2ccccc2)c2occc2c1C", 6.46),
    ("CC(=O)c1c(OCCCn2ccnc2)c(OCCCc2ccccc2)c2occc2c1C", 6.87),
]

The compound CC(=O)c1cc2ccoc2c(OCCCc2ccccc2)c1OCCN1CCOCC1 showed pEC50 equal to 6.21

The compound COc1c(C(C)=O)c(OCCCCOc2ccccc2)c(OCCN2CCOCC2)c2occc12 showed pEC50 equal to 6.04

The compound COc1c(C(C)=O)c(OCCN2CCOCC2)c(OCCCc2ccccc2)c2occc12 showed pEC50 equal to 6.96

---

Molecular target: human Kv1.3 ion channel (Homo sapiens, UniProt P22001)
Construct: Human Jurkat cells (which endogenously express hKv1.3) were used in place of rat L929 cells; endogenous in cells
Sequence (P22001 whole entry): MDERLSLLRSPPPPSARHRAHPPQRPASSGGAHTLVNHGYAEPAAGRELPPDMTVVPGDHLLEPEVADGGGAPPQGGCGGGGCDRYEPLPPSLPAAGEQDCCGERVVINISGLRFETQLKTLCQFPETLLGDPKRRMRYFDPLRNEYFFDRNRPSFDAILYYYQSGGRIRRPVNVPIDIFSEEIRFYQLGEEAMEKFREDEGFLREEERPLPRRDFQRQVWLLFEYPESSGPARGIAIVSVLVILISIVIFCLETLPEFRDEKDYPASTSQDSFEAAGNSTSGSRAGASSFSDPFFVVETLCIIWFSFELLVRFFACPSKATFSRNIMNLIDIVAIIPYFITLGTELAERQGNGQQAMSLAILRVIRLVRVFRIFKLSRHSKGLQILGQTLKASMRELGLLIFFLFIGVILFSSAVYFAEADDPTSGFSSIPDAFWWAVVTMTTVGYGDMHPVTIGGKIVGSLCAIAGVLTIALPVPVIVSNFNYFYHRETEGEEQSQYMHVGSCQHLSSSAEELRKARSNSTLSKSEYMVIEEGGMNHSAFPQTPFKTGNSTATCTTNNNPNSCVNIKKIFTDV
Test: Inhibition of Kv1.3 currents, planar patch clamp in Jurkat cells
Settings: Human Jurkat cells (endogenous hKv1.3), averaged dose response data from 3 or more cells
Measured pEC50 accompanies every entry in the list below.
Note on pEC50: it is the negative log10 of concentration, concentration in mol/L.

The compound COc1c(C(C)=O)c(OCCCS(=O)(=O)c2ccccc2)c(OC)c2occc12 showed pEC50 equal to 5.82

The compound CC(=O)c1c(OCCN2CCOCC2)c(OCCCc2ccc(F)cc2)c2occc2c1C [Example 47b] showed pEC50 equal to 7.13

The compound CC(=O)c1c(OCCn2ccnn2)c(OCCCc2ccccc2)c2occc2c1C showed pEC50 equal to 6.91

The compound CC(=O)c1c(OCCN2CCOCC2)c(OCC[C@@H](C)c2ccccc2)c2occc2c1C showed pEC50 equal to 7.74

The compound COc1c(C(C)=O)c(OCCN(C)C)c(OCCCc2ccccc2)c2occc12 showed pEC50 equal to 6.80

---

Measured EC50 accompanies every entry in the list below.
Molecular target: human Kv1.3 ion channel (Homo sapiens)
Construct: Human Jurkat cells (which endogenously express hKv1.3) were used in place of rat L929 cells; endogenous in cells
Test: Inhibition of Kv1.3 currents, planar patch clamp in Jurkat cells
Details: Human Jurkat cells (endogenous hKv1.3), averaged dose response data from 3 or more cells
Just the number plus its unit, please.

For orientation, consider the following solved cases.
# compound, test-result
records = [
    ("COc1c(C(C)=O)c(OCCNc2ccccc2)c(OC)c2occc12 [Example 11]", "980 nM"),
    ("CC(=O)c1c(OCCN2CCOCC2)cc2occc2c1OCCCCOc1ccccc1 [23 d)]", "174 nM"),
    ("CC(=O)c1c(OCCN2CCOCC2)c(OC[C@H]2C[C@@H]2c2ccccc2)c2occc2c1C [Example 58c]", "100 nM"),
]

Let us move to another entry and its EC50.
The compound Cc1cc(=O)c2c(C)c3ccoc3c(OC[C@H]3C[C@H]3c3ccccc3)c2o1 (racemic) [Example 59a] showed EC50 equal to 215 nM

---

Biological target: human Kv1.3 ion channel (Homo sapiens, UniProt P22001)
Construct: Human Jurkat cells (which endogenously express hKv1.3) were used in place of rat L929 cells; endogenous in cells
Test: Inhibition of Kv1.3 currents, planar patch clamp in Jurkat cells
Conditions: Human Jurkat cells (endogenous hKv1.3), averaged dose response data from 3 or more cells
pEC50: −log10 of the molar value.
Parameter threshold = 7. Response is MET when pEC50 meets or exceeds it, else NOT MET.

# compound, system-name, class
data = [
    ("CC(=O)c1c(OCCN(C)C)cc2occc2c1OCCCCOc1ccccc1 [Example 25]", "human Kv1.3 ion channel (Homo sapiens, UniProt P22001)", "NOT MET"),
    ("CC(=O)c1c(OCCNC2CCCC2)c(OCCC(C)c2ccccc2)c2occc2c1C (stereo not drawn) [Example 53]", "human Kv1.3 ion channel (Homo sapiens, UniProt P22001)", "MET"),
    ("CC(=O)c1c(OCCN2CCOCC2)c(OCCOc2ccc(F)cc2)c2occc2c1C [Example 43e]", "human Kv1.3 ion channel (Homo sapiens, UniProt P22001)", "NOT MET"),
    ("CC(=O)c1c(C)c2c(c(OCCC(C)c3ccc(F)cc3)c1OCCNC1CCCC1)OCC2 (stereo not drawn) [Example 67]", "human Kv1.3 ion channel (Homo sapiens, UniProt P22001)", "MET"),
]

Here is the next item to consider.
[in] Could you tell me if the measured pEC50 of CC(=O)c1c(OCCNC2CCCC2)c(OCCCc2ccccc2)c2occc2c1C [Example 32] reaches 7 or more?
[out] MET

---

Biological target: human Kv1.3 ion channel (Homo sapiens)
Construct: Human Jurkat cells (which endogenously express hKv1.3) were used in place of rat L929 cells; endogenous in cells
Test: Inhibition of Kv1.3 currents, planar patch clamp in Jurkat cells
Details: Human Jurkat cells (endogenous hKv1.3), averaged dose response data from 3 or more cells
test-readout: pEC50
Note on pEC50: it is the negative log10 of concentration, concentration in mol/L.

For orientation, consider the following solved cases.
# molecule, system-name, test-result
rows = [
    ("CC(=O)c1c(OCCc2ccccn2)c(OCCCc2ccccc2)c2occc2c1C", "human Kv1.3 ion channel (Homo sapiens)", 7.18),
    ("CC(=O)c1c(OCCNCCO)c(OCCCc2ccccc2)c2occc2c1C", "human Kv1.3 ion channel (Homo sapiens)", 6.24),
    ("COc1c(C(C)=O)c(OCCOc2ccccc2)c(OC)c2occc12", "human Kv1.3 ion channel (Homo sapiens)", 6.06),
    ("CC(=O)c1c(OCCN2CCOCC2)c(OCCC(C)(C)c2ccccc2)c2occc2c1C (racemic) [Example 46b]", "human Kv1.3 ion channel (Homo sapiens)", 6.70),
    ("CC(=O)c1cc2ccoc2cc1OCCCc1ccccc1", "human Kv1.3 ion channel (Homo sapiens)", 6.74),
]

Record for CCOC(=O)CC(=O)c1c(OCCN2CCOCC2)cc2occc2c1OCCCCOc1ccccc1 under target or system human Kv1.3 ion channel (Homo sapiens): pEC50 reported as 6.23

Record for CC(=O)c1c(OCCn2cncn2)c(OCCCc2ccccc2)c2occc2c1C under target or system human Kv1.3 ion channel (Homo sapiens): pEC50 reported as 7.13

Record for CC(=O)c1c(OCCCc2nnn[nH]2)c(OCCCc2ccccc2)c2occc2c1C [Example 54b] under target or system human Kv1.3 ion channel (Homo sapiens): pEC50 reported as 5.80

Record for CC(=O)c1c(C)c2c(c(CCCCc3ccccc3)c1OCCN1CCOCC1)OCC2 under target or system human Kv1.3 ion channel (Homo sapiens): pEC50 reported as 7.70

Record for CC(=O)c1c(C)c2c(c(OCCCc3ccccc3)c1OCCN1CCOCC1)OCC2 under target or system human Kv1.3 ion channel (Homo sapiens): pEC50 reported as 6.70

Record for CC(=O)c1c(OCCN2CCOCC2)c(OC/C=C/c2ccccc2)c2occc2c1C under target or system human Kv1.3 ion channel (Homo sapiens): pEC50 reported as 6.66

---

Biological target: human Kv1.3 ion channel (Homo sapiens)
Construct: Human Jurkat cells (which endogenously express hKv1.3) were used in place of rat L929 cells; endogenous in cells
Assay: Inhibition of Kv1.3 currents, planar patch clamp in Jurkat cells
Details: Human Jurkat cells (endogenous hKv1.3), averaged dose response data from 3 or more cells
Kindly apply the following: true (1) if EC50 is less than 0.2 µM, false (0) in every other case.

[in] Problem: For the compound CC(=O)c1c(OCCn2nnnc2N)c(OCCCc2ccccc2)c2occc2c1C , is EC50 under 0.2 µM?
[out] true (1)

[in] Problem: For the compound CC(=O)c1c(OCCCC#N)c(OCCCc2ccccc2)c2occc2c1C [Example 54a] , is EC50 under 0.2 µM?
[out] true (1)

[in] Problem: For the compound CC(=O)c1c(OCCc2nnn[nH]2)c(OCCCc2ccccc2)c2occc2c1C , is EC50 under 0.2 µM?
[out] false (0)

[in] Problem: For the compound COc1c(C(C)=O)c(OCCn2ccnc2)c(OCCCc2ccccc2)c2occc12 , is EC50 under 0.2 µM?
[out] true (1)

[in] Problem: For the compound COc1c(C(C)=O)c(OCCCOc2ccccc2)c(OC)c2occc12 , is EC50 under 0.2 µM?
[out] false (0)

[in] Problem: For the compound CC(=O)c1c(OCCn2ccnc2)c(OCCCc2ccccc2)c2occc2c1C , is EC50 under 0.2 µM?
[out] true (1)

[in] Problem: For the compound COc1c(C(C)=O)c(OCCS(=O)(=O)c2ccccc2)c(OC)c2occc12 , is EC50 under 0.2 µM?
[out] false (0)

# credit: patent US8309545B2
